Molecular target: His6-hsBMX (Homo sapiens, UniProt P51813)
READOUT_NAME: Kd
Answer as a quantity: numeral, then unit.

Entry C=CC(=O)Nc1cc(-n2c(=O)ccc3cnc4ccc(-c5ccc(NS(C)(=O)=O)cc5)cc4c32)ccc1C [BMX-IN-1, reference compound] : Kd on His6-hsBMX (Homo sapiens, UniProt P51813) = 69 nM

* * *

Molecular target: recombinant human BMX protein (hBMX) (Homo sapiens, UniProt P51813)
Construct: Crystallization, data collection, and structure determination of BMX catalytic domain in; made in house; host or cells: Sf-9 insect cells
Assay: Differential scanning fluorimetry (DSF)
Format: binding
Settings: 100 μM compound; apo-BMX Tm 51.8-52.2 °C
This section presents compounds with their documented Average Tm of BMX with compound values.

Examples with their reported Average Tm of BMX with compound follow.
[[record]]
compound = "COC(=O)C=CCNc1cc(-n2c(=O)ccc3cnc4ccc(-c5ccc(NS(C)(=O)=O)cc5)cc4c32)ccc1C (mixture of isomers)"
target_system = "recombinant human BMX protein (hBMX) (Homo sapiens, UniProt P51813)"
result = "52.44±0.06 °C"

[[record]]
compound = "C=CC(=O)Nc1cc(-n2c(=O)ccc3cnc4ccc(-c5ccc(C(F)(F)F)nc5)cc4c32)ccc1C"
target_system = "recombinant human BMX protein (hBMX) (Homo sapiens, UniProt P51813)"
result = "58.64±0.13 °C"

[[record]]
compound = "C=CC(=O)Nc1cc(-n2c(=O)ccc3cnc4ccc(N5CCOCC5)cc4c32)ccc1C"
target_system = "recombinant human BMX protein (hBMX) (Homo sapiens, UniProt P51813)"
result = "60.50±0.06 °C"

[[record]]
compound = "C=CC(=O)Nc1cccc(-n2c(=O)ccc3cnc4ccc(-c5ccc(NS(C)(=O)=O)cc5)cc4c32)c1"
target_system = "recombinant human BMX protein (hBMX) (Homo sapiens, UniProt P51813)"
result = "59.66±0.01 °C"

[[record]]
compound = "CC(C)=CC(=O)Nc1cc(-n2c(=O)ccc3cnc4ccc(-c5ccc(NS(C)(=O)=O)cc5)cc4c32)ccc1C"
target_system = "recombinant human BMX protein (hBMX) (Homo sapiens, UniProt P51813)"
result = "52.26±0.11 °C"


Now consider a different compound.
Quick note, Average Tm of BMX with compound for C=CC(=O)Nc1cc(-n2c(=O)ccc3cnc4ccc(-c5ccc(C#N)nc5)cc4c32)ccc1C landed at 59.42±0.11 °C

* * *

Assay: Dynamic light scattering, colloidal aggregation
Format: physicochemical
Details: deionized and filtered water (0.1% DMSO), kinetic from dmso stock, measured at 10 µM, 1 µM and 100 nM, 25 °C, read-out: DLS maximum soluble concentration at which no aggregates are observed
READOUT_NAME: solubility

Sample answers from the record:
[[record]]
compound = "C=CC(=O)Nc1cc(-n2c(=O)ccc3cnc4cc(-c5ccc(NS(C)(=O)=O)cc5)ccc4c32)ccc1C"
readout_name = "solubility"
result = "1 µM"

[[record]]
compound = "C=CC(=O)Nc1cc(-n2c(=O)ccc3cnc4ccc(-c5ccc(NS(C)(=O)=O)cc5)cc4c32)ccc1C [BMX-IN-1, reference compound]"
readout_name = "solubility"
result = "≥ 10 µM"

[[record]]
compound = "C=CC(=O)Nc1cccc(-n2c(=O)ccc3cnc4cc(N5CCN(S(C)(=O)=O)CC5)ccc4c32)c1"
readout_name = "solubility"
result = "≥ 10 µM"


# compound C=CC(=O)Nc1cc(C)cc(-n2c(=O)ccc3cnc4ccc(-c5ccc(NS(C)(=O)=O)cc5)cc4c32)c1 ; its solubility = < 0.1 µM

* * *

Target: BMX (Homo sapiens)
Test: BMX biochemical activity assay (HTRF, phosphorylation of a biotinylated peptide)
Conditions: Experiment 2 of Fig. S3; control commercial BMX-IN-1; read-out: BMX IC50
# key: entry, value: pIC50
// scale note: pIC50 = -log10(conc_M); give the bare number

Worked examples follow.
[[record]]
molecule = "C=CC(=O)Nc1cc(-n2c(=O)ccc3cnc4ccc(-c5ccncc5)cc4c32)ccc1C"
recorded_number = 7.35

[[record]]
molecule = "C=CC(=O)Nc1cc(-n2c(=O)ccc3cnc4ccc(N5CCOCC5)cc4c32)ccc1C"
recorded_number = 7.37

[[record]]
molecule = "C=CC(=O)Nc1cc(-n2c(=O)ccc3cnc4ccc(-c5ccc(NS(C)(=O)=O)cc5)cc4c32)ccc1C [BMX-IN-1, reference compound]"
recorded_number = 7.26

[[record]]
molecule = "C=CC(=O)Nc1cc(-n2c(=O)ccc3cnc4ccc(N5CCC(N(C)C)CC5)cc4c32)ccc1C"
recorded_number = 7.39


// next item, pIC50 requested
The molecule listed as C=CC(=O)Nc1cc(-n2c(=O)ccc3cnc4ccc(-c5ccc(C(F)(F)F)nc5)cc4c32)ccc1C has a reported pIC50 of 6.33

* * *

Target: BTK (Homo sapiens, UniProt Q06187)
Sequence (Q06187 whole entry, species assumed): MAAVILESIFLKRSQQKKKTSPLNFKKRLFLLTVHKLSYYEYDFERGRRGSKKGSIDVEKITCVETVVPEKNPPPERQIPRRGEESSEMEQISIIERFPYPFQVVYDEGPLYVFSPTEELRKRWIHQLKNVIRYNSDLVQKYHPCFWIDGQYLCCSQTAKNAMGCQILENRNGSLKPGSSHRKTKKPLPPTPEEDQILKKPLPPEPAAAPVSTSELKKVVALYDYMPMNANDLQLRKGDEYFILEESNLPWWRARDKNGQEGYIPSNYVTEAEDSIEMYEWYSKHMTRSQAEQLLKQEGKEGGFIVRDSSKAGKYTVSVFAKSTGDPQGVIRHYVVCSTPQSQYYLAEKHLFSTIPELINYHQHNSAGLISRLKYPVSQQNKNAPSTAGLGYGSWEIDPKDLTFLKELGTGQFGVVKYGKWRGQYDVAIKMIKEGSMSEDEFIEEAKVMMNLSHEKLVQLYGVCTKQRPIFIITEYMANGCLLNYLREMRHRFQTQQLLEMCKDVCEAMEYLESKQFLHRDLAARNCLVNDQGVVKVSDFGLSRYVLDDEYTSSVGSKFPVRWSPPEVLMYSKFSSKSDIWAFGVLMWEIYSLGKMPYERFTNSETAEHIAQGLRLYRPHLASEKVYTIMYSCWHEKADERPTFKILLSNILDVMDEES
READOUT_NAME: pIC50
Field pIC50 (float): negative decimal logarithm of the concentration in molar.

Reading of pIC50 for C=CC(=O)Nc1cc(C)cc(-n2c(=O)ccc3cnc4cc(-c5ccc(NS(C)(=O)=O)cc5)ccc4c32)c1 with BTK (Homo sapiens, UniProt Q06187): 8.24

* * *

Target: BMX (Homo sapiens, UniProt P51813)
Sequence (P51813 1-675): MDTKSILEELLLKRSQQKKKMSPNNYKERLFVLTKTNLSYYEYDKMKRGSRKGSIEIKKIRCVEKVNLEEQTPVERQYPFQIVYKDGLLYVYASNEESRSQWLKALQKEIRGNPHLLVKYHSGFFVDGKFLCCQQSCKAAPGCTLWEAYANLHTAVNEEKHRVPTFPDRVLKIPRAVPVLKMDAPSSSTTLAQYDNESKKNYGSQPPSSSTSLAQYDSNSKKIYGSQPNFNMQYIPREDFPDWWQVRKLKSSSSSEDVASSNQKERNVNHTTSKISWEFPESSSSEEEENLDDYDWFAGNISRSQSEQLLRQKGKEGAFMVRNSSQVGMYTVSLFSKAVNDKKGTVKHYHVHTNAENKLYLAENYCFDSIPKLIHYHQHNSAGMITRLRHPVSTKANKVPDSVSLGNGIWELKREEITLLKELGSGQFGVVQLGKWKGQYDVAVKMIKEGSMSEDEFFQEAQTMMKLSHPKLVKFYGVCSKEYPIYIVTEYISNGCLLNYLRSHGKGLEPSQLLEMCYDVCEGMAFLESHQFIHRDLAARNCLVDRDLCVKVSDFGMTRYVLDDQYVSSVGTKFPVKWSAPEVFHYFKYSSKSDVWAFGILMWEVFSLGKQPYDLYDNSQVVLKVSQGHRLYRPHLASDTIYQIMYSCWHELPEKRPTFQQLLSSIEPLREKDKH
Experiment: BMX biochemical activity assay (HTRF, phosphorylation of a biotinylated peptide)
Conditions: Experiment 1 of Fig. S3; control JS9A (in-house BMX-IN-1); read-out: BMX IC50
This section presents compounds with their documented log10(IC50) values.
Note the log scale: values are log10 of IC50 expressed in nM.

Worked examples, 3 compounds total:
[[record]]
compound = "C=CC(=O)Nc1cc(C)cc(-n2c(=O)ccc3cnc4ccc(-c5ccc(NS(C)(=O)=O)cc5)cc4c32)c1"
readout_name = "log10(IC50)"
recorded_number = 2.38

[[record]]
compound = "C=CC(=O)Nc1cccc(-n2c(=O)ccc3cnc4ccc(-c5ccc(NS(C)(=O)=O)cc5)cc4c32)c1"
readout_name = "log10(IC50)"
recorded_number = 1.77

[[record]]
compound = "CC=CC(=O)Nc1cc(-n2c(=O)ccc3cnc4ccc(-c5ccc(NS(C)(=O)=O)cc5)cc4c32)ccc1C"
readout_name = "log10(IC50)"
recorded_number = 4.32


// C=CC(=O)Nc1cc(-n2c(=O)ccc3cnc4ccc(-c5ccc(NS(C)(=O)=O)cc5)cc4c32)ccc1C [BMX-IN-1, reference compound] : log10(IC50) value = 2.56

Measured log10(IC50), C=CC(=O)Nc1ccc(C)c(-n2c(=O)ccc3cnc4ccc(-c5ccc(NS(C)(=O)=O)cc5)cc4c32)c1 : 3.84

The value of log10(IC50) measured for the compound C=CC(=O)Nc1cc(-n2c(=O)ccc3cnc4ccc(-c5ccc(NS(C)(=O)=O)cc5)cc4c32)ccc1OC turned out to be 3.11

* * *

Settings: pH 6.8
READOUT_NAME: PAMPA/Pe effective permeability

The examples below pair each entry with its known result.
[[record]]
compound = "Cc1ccc(-n2c(=O)ccc3cnc4ccc(-c5ccc(NS(C)(=O)=O)cc5)cc4c32)cc1NCC=CC#N (mixture of isomers)"
result = "45±3 x10-6 cm/sec"

[[record]]
compound = "CC=CC(=O)Nc1cc(-n2c(=O)ccc3cnc4ccc(-c5ccc(NS(C)(=O)=O)cc5)cc4c32)ccc1C"
result = "28±4 x10-6 cm/sec"

[[record]]
compound = "C=CC(=O)Nc1cc(-n2c(=O)ccc3cnc4ccc(N5CCOCC5)cc4c32)ccc1C"
result = "22±1 x10-6 cm/sec"

[[record]]
compound = "C=CC(=O)Nc1cc(-n2c(=O)ccc3cnc4ccc(-c5ccc(NS(=O)(=O)CCCC)cc5)cc4c32)ccc1C"
result = "Und"

[[record]]
compound = "C=CC(=O)Nc1cc(-n2c(=O)ccc3cnc4ccc(-c5ccncc5)cc4c32)ccc1C"
result = "24±1 x10-6 cm/sec"

[[record]]
compound = "COC(=O)C=CCNc1cc(-n2c(=O)ccc3cnc4ccc(-c5ccc(NS(C)(=O)=O)cc5)cc4c32)ccc1C (mixture of isomers)"
result = "45±9 x10-6 cm/sec"

[[record]]
compound = "C=CC(=O)Nc1cccc(-n2c(=O)ccc3cnc4ccc(-c5ccc(NS(C)(=O)=O)cc5)cc4c32)c1"
result = "11±1 x10-6 cm/sec"

[[record]]
compound = "C=CC(=O)Nc1cc(-n2c(=O)ccc3cnc4ccc(-c5ccc(NS(C)(=O)=O)cc5)cc4c32)ccc1OC"
result = "40±5 x10-6 cm/sec"

[[record]]
compound = "C=CC(=O)Nc1cc(-n2c(=O)ccc3cnc4ccc(Br)cc4c32)ccc1C"
result = "32±4 x10-6 cm/sec"

[[record]]
compound = "C=CC(=O)Nc1cc(-n2c(=O)ccc3cnc4ccc(N5CCC(N(C)C)CC5)cc4c32)ccc1C"
result = "2.2±0.2 x10-6 cm/sec"


What the record says about C=CC(=O)Nc1cc(-n2c(=O)ccc3cnc4ccc(-c5ccc(C#N)nc5)cc4c32)ccc1C : PAMPA/Pe effective permeability is 24±2 x10-6 cm/sec

Quick note, PAMPA/Pe effective permeability for C=CC(=O)Nc1cc(-n2c(=O)ccc3cnc4ccc(-c5cccc(NS(C)(=O)=O)c5)cc4c32)ccc1C landed at 30±18 x10-6 cm/sec

Quick note, PAMPA/Pe effective permeability for C=CC(=O)Nc1cc(-n2c(=O)ccc3cnc4ccc(-c5ccc(C(F)(F)F)nc5)cc4c32)ccc1C landed at Und

Measured PAMPA/Pe effective permeability of CC(C)=CC(=O)Nc1cc(-n2c(=O)ccc3cnc4ccc(-c5ccc(NS(C)(=O)=O)cc5)cc4c32)ccc1C : 31±4 x10-6 cm/sec

C=CC(=O)Nc1cc(-n2c(=O)ccc3cnc4ccc(N5CCCCC5)cc4c32)ccc1C has a reported PAMPA/Pe effective permeability of 30±2 x10-6 cm/sec

Lab book: PAMPA/Pe effective permeability of C=CC(=O)Nc1cc(-n2c(=O)ccc3cnc4ccc(N5CCN(S(C)(=O)=O)CC5)cc4c32)ccc1C noted as 18±1 x10-6 cm/sec
